System: D(1A) dopamine receptor (Rattus norvegicus, UniProt P18901) | Read-out: pKi
Sequence (P18901 whole entry): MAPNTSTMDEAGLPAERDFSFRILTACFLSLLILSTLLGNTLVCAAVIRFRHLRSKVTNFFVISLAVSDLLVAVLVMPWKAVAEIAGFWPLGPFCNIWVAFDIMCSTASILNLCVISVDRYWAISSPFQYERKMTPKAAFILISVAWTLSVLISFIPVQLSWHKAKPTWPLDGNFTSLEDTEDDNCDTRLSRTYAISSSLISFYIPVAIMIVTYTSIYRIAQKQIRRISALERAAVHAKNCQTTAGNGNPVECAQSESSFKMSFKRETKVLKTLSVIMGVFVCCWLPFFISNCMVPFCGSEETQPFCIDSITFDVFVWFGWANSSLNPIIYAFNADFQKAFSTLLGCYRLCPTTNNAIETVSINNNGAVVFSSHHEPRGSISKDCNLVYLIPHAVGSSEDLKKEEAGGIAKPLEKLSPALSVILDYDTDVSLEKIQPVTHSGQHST
Convention used: pKi is expressed as -log10 of the molar concentration.

[[record]]
chemical_string = "CCN1CCc2cccc3c2[C@H]1Cc1ccc(O)c(O)c1-3.Cl"
measurement_target = "D(1A) dopamine receptor (Rattus norvegicus, UniProt P18901)"
reported_metric = "pKi"
measurement = 6.91

[[record]]
chemical_string = "Cl.Oc1ccc2c(c1O)-c1cccc3c1[C@@H](C2)N(CC1CC1)CC3"
measurement_target = "D(1A) dopamine receptor (Rattus norvegicus, UniProt P18901)"
reported_metric = "pKi"
measurement = 6.14

[[record]]
chemical_string = "Cl.Oc1ccc2c(c1O)-c1cccc3c1[C@@H](C2)NCC3"
measurement_target = "D(1A) dopamine receptor (Rattus norvegicus, UniProt P18901)"
reported_metric = "pKi"
measurement = 6.41


Suppose we examine the compound Br.C=CCN1CCc2cccc3c2[C@H]1Cc1ccc(O)c(O)c1-3 ; what pKi value has been reported?
6.21
